Provenance of the data: ChEMBL document CHEMBL1140801

- TARGET: Cruzipain (Trypanosoma cruzi) (UniProt P25779)
- PROCEDURE SUMMARY: Ratio of Kinact to ki of Trypanosoma cruzi cruzain
For each entry below, report its Ratio value.
Numbers only, in M⁻¹ s⁻¹.

// known answers, use as guide
Cc1ccc(C[C@H](NC(=O)c2ccccn2)C(=O)N[C@H](/C=C/S(=O)(=O)c2ccccc2)CCc2ccccc2)cc1 16000
Cc1cccc(C[C@H](NC(=O)c2ccc3c(c2)OCCO3)C(=O)N[C@H](/C=C/S(=O)(=O)c2ccccc2)CCc2ccccc2)c1 14000
O=C(N[C@@H](Cc1ccccc1)C(=O)N[C@H](/C=C/S(=O)(=O)c1ccccc1)CCc1ccccc1)c1ccc(C(F)(F)F)cc1 100000

Hey, can you go through the list below and give me Ratio for every item?
1. CN1CCN(C(=O)N[C@@H](Cc2cccc(C(F)(F)F)c2)C(=O)N[C@H](/C=C/S(=O)(=O)c2ccccc2)CCc2ccccc2)CC1
2. Cc1ccc(C[C@H](NC(=O)c2ccc3c(c2)OCCO3)C(=O)N[C@H](/C=C/S(=O)(=O)c2ccccc2)CCc2ccccc2)cc1
3. Cc1ccc(C[C@H](NC(=O)c2ccc(C(F)(F)F)cc2)C(=O)N[C@H](/C=C/S(=O)(=O)c2ccccc2)CCc2ccccc2)cc1

1. 53000
2. 311000
3. 109000

----------
- TARGET: Cruzipain (Trypanosoma cruzi)
- Sequence (P25779 whole entry): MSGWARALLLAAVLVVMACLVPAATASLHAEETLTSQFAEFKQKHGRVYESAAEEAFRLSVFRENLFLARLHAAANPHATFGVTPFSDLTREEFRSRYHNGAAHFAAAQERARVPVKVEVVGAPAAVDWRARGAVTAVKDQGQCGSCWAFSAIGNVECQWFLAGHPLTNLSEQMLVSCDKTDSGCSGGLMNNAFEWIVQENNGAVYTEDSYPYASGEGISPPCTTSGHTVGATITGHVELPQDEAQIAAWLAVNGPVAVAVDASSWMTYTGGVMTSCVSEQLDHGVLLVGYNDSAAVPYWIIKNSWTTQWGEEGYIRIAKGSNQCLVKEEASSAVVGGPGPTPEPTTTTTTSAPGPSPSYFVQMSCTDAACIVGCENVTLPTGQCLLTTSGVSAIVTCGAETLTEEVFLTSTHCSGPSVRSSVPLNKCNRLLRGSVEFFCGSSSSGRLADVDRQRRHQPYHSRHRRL
So basically, if Ki comes in under 100 nM it's Y, and if it's 100 nM or more it's N.

The following compounds have reported results that may help.
Cc1ccc(C[C@H](NC(=O)c2ccc(C(F)(F)F)cc2)C(=O)N[C@H](/C=C/S(=O)(=O)c2ccccc2)CCc2ccccc2)cc1 Y
O=C(N[C@@H](Cc1ccccc1)C(=O)N[C@H](/C=C/S(=O)(=O)c1ccccc1)CCc1ccccc1)c1ccccn1 N
Cc1cccc(C[C@H](NC(=O)N2CCN(C)CC2)C(=O)N[C@H](/C=C/S(=O)(=O)c2ccccc2)CCc2ccccc2)c1 N
O=C(N[C@@H](Cc1ccccc1)C(=O)N[C@H](/C=C/S(=O)(=O)c1ccccc1)CCc1ccccc1)c1cc(F)cc(F)c1 N
Cc1cccc(C[C@H](NC(=O)c2ccc(C(F)(F)F)cc2)C(=O)N[C@H](/C=C/S(=O)(=O)c2ccccc2)CCc2ccccc2)c1 Y

Regarding "Cc1ccc(C[C@H](NC(=O)c2ccccn2)C(=O)N[C@H](/C=C/S(=O)(=O)c2ccccc2)CCc2ccccc2)cc1" , kindly confirm whether its Ki is beneath 100 nM.
N

Regarding "O=C(N[C@@H](Cc1ccccc1)C(=O)N[C@H](/C=C/S(=O)(=O)c1ccccc1)CCc1ccccc1)c1ccc2c(c1)OCCO2" , kindly confirm whether its Ki is beneath 100 nM.
Y

Regarding "Cc1cccc(C[C@H](NC(=O)c2cc(F)cc(F)c2)C(=O)N[C@H](/C=C/S(=O)(=O)c2ccccc2)CCc2ccccc2)c1" , kindly confirm whether its Ki is beneath 100 nM.
Y

Regarding "Cc1cccc(C[C@H](NC(=O)c2ccc3c(c2)OCCO3)C(=O)N[C@H](/C=C/S(=O)(=O)c2ccccc2)CCc2ccccc2)c1" , kindly confirm whether its Ki is beneath 100 nM.
Y

Regarding "CN1CCN(C(=O)N[C@@H](Cc2cccc(C(F)(F)F)c2)C(=O)N[C@H](/C=C/S(=O)(=O)c2ccccc2)CCc2ccccc2)CC1" , kindly confirm whether its Ki is beneath 100 nM.
N
